Ki overview
MEASURED_TARGET: sigma-2 receptor (Homo sapiens)
Construct: MCF7 cells were suspended in sigma-2 assay buffer (50 mM Tris-HCl; pH 8.0), sonicated (1 minute) and the homogenate was centrifuged; endogenous in cells; host or cells: MCF7 cells (gift), membrane pellet
ASSAY_EXPLANATION: biochemical
Format: binding
CONDITION_SUMMARY: read-out: σ-2 R affinity Ki
Numeric answer only, unit µM assumed.

CCCCCCCCCCN	3.9

get_value(item= CCCCNCCCC , readout=Ki) returns 2.3

Record CCCCCCCCNCCCCCCCC . Reported Ki: 0.014

====

MEASURED_TARGET: sigma-2 receptor (Homo sapiens, UniProt Q5BJF2)
Construct: MCF7 cells were suspended in sigma-2 assay buffer (50 mM Tris-HCl; pH 8.0), sonicated (1 minute) and the homogenate was centrifuged; endogenous in cells; host or cells: MCF7 cells (gift), membrane pellet
Sequence (Q5BJF2 whole entry): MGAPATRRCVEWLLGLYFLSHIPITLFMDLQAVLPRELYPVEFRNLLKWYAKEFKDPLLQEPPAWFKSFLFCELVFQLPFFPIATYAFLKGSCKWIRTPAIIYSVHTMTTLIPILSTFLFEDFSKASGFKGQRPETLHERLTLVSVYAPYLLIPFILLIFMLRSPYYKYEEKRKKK
ASSAY_EXPLANATION: biochemical
Format: binding
ENDPOINT_LABEL: σ-2 R affinity pKi ± SEM (n)

Answered cases to consult:
CNC	<3 (3)
CCCCCCCCN(CCCCCCCC)CCCCCCCC.Cl	3.74 ± 0.06 (3)
CCCCN	3.26 ± 0.05 (3)
CCCCC(CC)CNCC(CC)CCCC (centres unmarked)	4.0 ± 0.2 (3)
CCCCCCN(CCCCCC)CCCCCC	6.63 ± 0.03 (3)
CC(C)CN(CC(C)C)CC(C)C.Cl	5.46 ± 0.06 (3)
CC(C)CNCC(C)C	5.2 ± 0.2 (3)
CCCCCN(CCCCC)CCCCC	6.1 ± 0.1 (3)

What the record says about CCCN : σ-2 R affinity pKi ± SEM (n) is <3 (3)

Looking up CN(C)C.Cl , I see its σ-2 R affinity pKi ± SEM (n) listed as <3 (3)

Sure, the documented σ-2 R affinity pKi ± SEM (n) for CCN(CC)CC is 3.66 ± 0.04 (3)

Measured σ-2 R affinity pKi ± SEM (n), CCCCNCCCC : 5.64 ± 0.07 (3)

σ-2 R affinity pKi ± SEM (n) reported for this compound CCCCCCCCCCCCN(CCCCCCCCCCCC)CCCCCCCCCCCC : 4.1 ± 0.6 (3)

In plain terms, CCC(C)NC(C)CC (centres unmarked) has a documented σ-2 R affinity pKi ± SEM (n) of 5.2 ± 0.2 (3)

// σ-2 R affinity pKi ± SEM (n) lookup, compound = CCNCC.Cl , result: <3 (3)

Memo: CCCN(CCC)CCC , reported σ-2 R affinity pKi ± SEM (n): 4.36 ± 0.07 (3)

// σ-2 R affinity pKi ± SEM (n) value for CC(C)NC(C)C : 4.1 ± 0.1 (3)

====

# reported pKi; entries follow
MEASURED_TARGET: sigma-2 receptor (Homo sapiens)
Construct: MCF7 cells were suspended in sigma-2 assay buffer (50 mM Tris-HCl; pH 8.0), sonicated (1 minute) and the homogenate was centrifuged; endogenous in cells; host or cells: MCF7 cells (gift), membrane pellet
ASSAY_EXPLANATION: biochemical
Format: binding
CONDITION_SUMMARY: read-out: σ-2 R affinity Ki
Answer as the number alone; pKi is minus log10 of concentration in mol/L.

# count of solved cases: 5
NC1C2CC3CC(C2)CC1C3 (stereo not drawn)	5.46
CCCCCCCCN(CCCCCCCC)CCCCCCCC.Cl	3.74
CC(C)CN(CC(C)C)CC(C)C.Cl	5.46
CCCCCN(CCCCC)CCCCC	6.11
CCN(CC)CC	3.66

For CCCCCCCCCCCCN(CCCCCCCCCCCC)CCCCCCCCCCCC the molecule record lists pKi as 4.12

====

Catalogue of pKi readings, one per entry.
MEASURED_TARGET: sigma-2 receptor (Homo sapiens)
Construct: MCF7 cells were suspended in sigma-2 assay buffer (50 mM Tris-HCl; pH 8.0), sonicated (1 minute) and the homogenate was centrifuged; endogenous in cells; host or cells: MCF7 cells (gift), membrane pellet
ASSAY_EXPLANATION: biochemical
Type: binding
CONDITION_SUMMARY: read-out: σ-2 R affinity Ki
Remember the convention: pKi equals -log10 of concentration in molar.

The following compounds have reported results that may help.
CC(C)CNCC(C)C [Diisobutyl]	5.18
CCCCCCCCN.Cl [Octyl]	5.21

Let us examine a further case.
pKi for CCCCC(CC)CNCC(CC)CCCC (stereo not drawn) [Bis(2-ethylhexyl), bis(2-ethylhexyl)ammonium] is 4.04
